- Test system: ApoE^−/− mice
- test-name: Survival of ApoE−/− mice during treatment
- Type: in vivo
- experimental-setup: atherogenic diet, 8 weeks treatment
measurement-name: survival / mortality of mice

Answer with the recorded survival / mortality of mice for the molecule listed here: CCCCCCCCCCCC(=O)OC1CC[C@H]2[C@@H]3CC=C4CC(OS(=O)(=O)[O-])CC[C@]4(C)[C@H]3CC[C@]12C.[Na+] (stereo partly shown)
survived

Answer with the recorded survival / mortality of mice for the molecule listed here: CCCCCC(=O)OC1CC[C@H]2[C@@H]3CC=C4CC(OS(=O)(=O)[O-])CC[C@]4(C)[C@H]3CC[C@]12C.[Na+] (stereo partly shown)
survived

Answer with the recorded survival / mortality of mice for the molecule listed here: CCCCCCCCCCCCCCCC(=O)OC1CC[C@H]2[C@@H]3CC=C4CC(OS(=O)(=O)[O-])CC[C@]4(C)[C@H]3CC[C@]12C.[Na+] (stereo partly shown)
survived
